src = paper PMC5053523

Catalogue of compounds with associated MIC
Test system: Vancomycin Resistant Staphylococcus aureus (VRSA)
PROTOCOL DETAILS: Broth microdilution MIC/MBC, VRSA
Format: cell-based
EXPERIMENTAL CONTEXT: VRSA, VRSA 9, read-out: MIC

CHEMICAL STRUCTURE	MIC / µM
O=C(O)[C@H](Cc1ccccc1)N1C(=O)/C(=C/c2cccc(-c3ccc(Cl)c(Cl)c3)c2)SC1=S	8
O=C(O)[C@H](Cc1ccccc1)N1C(=O)/C(=C/c2cccc(Oc3ccc(Cl)c(Cl)c3)c2)SC1=S	8
O=C(O)[C@H](Cc1ccccc1)N1C(=O)/C(=C/c2cccc(OC/C=C/c3ccc(Cl)c(Cl)c3)c2)SC1=S	8
O=C(O)[C@@H](Cc1ccccc1)N1C(=O)/C(=C/c2cccc(Oc3ccc(F)cc3)c2)SC1=S	32
